These entries and their values trace back to patent EP4603477A1.

Measured logP accompanies every entry in the list below.
Experiment: physchem
Observable: logP

| Compound | Observable | Result |
| --- | --- | --- |
| O=C(Cc1ccccc1)Nc1cc([N+](=O)[O-])ccc1F [Compound 9] | logP | 2.85 |
| COc1ccc(CC(=O)Nc2cc([N+](=O)[O-])ccc2F)cc1 [Compound 7] | logP | 2.98 |
| COc1ccc(CC(=O)Nc2cc(N)ccc2F)cc1 [Compound 4] | logP | 2.01 |
| Nc1ccc(F)c(NC(=O)c2cccc3ccccc23)c1 [Compound 2, N-(5-Amino-2-fluorophenyl)-1-naphthamide] | logP | 3.19 |
| Nc1ccc(F)c(NC(=O)Cc2ccccc2)c1 [Compound 1] | logP | 2.14 |
